# test.system: E3 (His-APC11/APC2-"APC") (Homo sapiens, UniProt Q9NYG5+Q9UJX6)
# Sequence (Q9NYG5 whole entry): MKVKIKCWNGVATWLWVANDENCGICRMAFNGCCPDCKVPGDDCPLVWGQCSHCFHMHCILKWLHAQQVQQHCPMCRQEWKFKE
# Sequence (Q9UJX6 whole entry): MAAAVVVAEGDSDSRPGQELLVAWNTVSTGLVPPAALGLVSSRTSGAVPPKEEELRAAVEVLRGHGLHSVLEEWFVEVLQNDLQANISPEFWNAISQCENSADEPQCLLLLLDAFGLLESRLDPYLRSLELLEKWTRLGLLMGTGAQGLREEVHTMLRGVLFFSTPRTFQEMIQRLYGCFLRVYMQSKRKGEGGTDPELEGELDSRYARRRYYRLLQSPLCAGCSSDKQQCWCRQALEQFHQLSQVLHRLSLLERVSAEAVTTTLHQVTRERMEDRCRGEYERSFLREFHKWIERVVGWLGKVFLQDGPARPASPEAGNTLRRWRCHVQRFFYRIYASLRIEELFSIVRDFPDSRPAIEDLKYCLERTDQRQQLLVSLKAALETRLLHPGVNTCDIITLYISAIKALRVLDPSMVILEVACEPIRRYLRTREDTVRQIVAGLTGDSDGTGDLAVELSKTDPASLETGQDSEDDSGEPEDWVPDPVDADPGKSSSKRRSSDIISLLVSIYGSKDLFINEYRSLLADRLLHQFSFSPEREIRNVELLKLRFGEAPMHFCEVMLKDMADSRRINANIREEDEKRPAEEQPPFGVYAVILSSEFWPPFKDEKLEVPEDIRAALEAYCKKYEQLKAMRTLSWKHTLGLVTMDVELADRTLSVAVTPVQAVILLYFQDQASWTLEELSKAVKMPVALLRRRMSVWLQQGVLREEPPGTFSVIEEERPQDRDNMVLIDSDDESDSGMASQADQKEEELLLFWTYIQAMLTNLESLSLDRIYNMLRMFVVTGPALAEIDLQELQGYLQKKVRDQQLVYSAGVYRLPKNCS
# measurement.description: Plate-based E3 ligase assay (APC FLAG), auto-ubiquitination
# Type: biochemical
# Parameters: key: “+” indicates that the compound exibits inhibitory activity; “−” indicates that low or no inhibitory activity was observed
# reported.conditions: 8 concentrations tested
quantity.measured: APC Flag 8 pt

- O=[N+]([O-])c1ccc(Oc2c(Cl)cc(S(=O)(=O)Nc3ccc4c(c3)OCO4)cc2Cl)c(Cl)c1 [Example 162]: +
- O=[N+]([O-])c1ccc(Oc2c(Cl)cc(S(=O)(=O)Nc3cccc(F)c3)cc2Cl)c(Cl)c1 [Example 232]: +
- COc1cc(NS(=O)(=O)c2cc(Cl)c(Oc3ccc([N+](=O)[O-])cc3Cl)c(Cl)c2)c(OC)cc1Cl [Example 202]: −
- O=[N+]([O-])c1ccc(Oc2c(Cl)cc(S(=O)(=O)Nc3ccc(Cl)cc3[N+](=O)[O-])cc2Cl)c(Cl)c1 [Compound 215]: +

====

# Test system: HeLa cells
# measurement.description: Cell proliferation assay, photographic image analysis of proliferation, apoptosis and death (PAD assay), HeLa
# Format: cell-based
# Parameters: key: “+” indicates that the compound exibits inhibitory activity; “−” indicates that low or no inhibitory activity was observed
# reported.conditions: 6 concentrations tested
quantity.measured: PAD Assay, HELA 6 pt

• CS(=O)(=O)c1cccc(NS(=O)(=O)c2cc(Cl)c(Oc3ccc([N+](=O)[O-])cc3Cl)c(Cl)c2)c1 = −
• O=S(=O)(Nc1ccc(Oc2c(Cl)cc(Cl)cc2Cl)cc1)c1cc(Cl)ccc1Cl = +
• O=S(=O)(c1cccc(C(F)(F)F)c1)N1CCC(Oc2ccccc2C(F)(F)F)CC1 = +
• O=[N+]([O-])c1ccc(Oc2ccc(S(=O)(=O)Nc3cc(Cl)ccc3Cl)cc2Cl)c(C(F)(F)F)c1 = +
• O=S(=O)(Nc1ccc(Oc2ncc(C(F)(F)F)cc2Cl)cc1)c1cccc(C(F)(F)F)c1 = +
• O=[N+]([O-])c1ccc(Oc2ccc(S(=O)(=O)Nc3ccc(F)cc3C(F)(F)F)cc2Cl)c(C(F)(F)F)c1 = +
• O=S(=O)(Nc1ccc(Oc2ncc(C(F)(F)F)cc2Cl)cc1)c1ccccc1C(F)(F)F = −

====

# Test system: HeLa cells
# measurement.description: Cell proliferation assay, photographic image analysis of proliferation, apoptosis and death (PAD assay), HeLa
# Assay type: cell-based
# Parameters: key: “+” indicates that the compound exibits inhibitory activity; “−” indicates that low or no inhibitory activity was observed
# reported.conditions: 6 concentrations tested
quantity.measured: PAD Assay, HELA 6 pt

• O=[N+]([O-])c1ccc(Oc2c(Cl)cc(S(=O)(=O)/N=C(\NO)Nc3ccc(Cl)cc3)cc2Cl)c(Cl)c1 = +
• Cc1ccc(C(F)(F)F)cc1NS(=O)(=O)c1cc(Cl)c(Oc2ccc([N+](=O)[O-])cc2Cl)c(Cl)c1 = +
• O=[N+]([O-])c1ccc(Oc2c(Cl)cc(S(=O)(=O)Nc3ccsc3)cc2Cl)c(Cl)c1 = +
• O=S(=O)(Nc1ccc(Oc2ccc(F)cc2)c(Br)c1)c1cc(Cl)ccc1Cl = +
• O=C(Nc1cccc(Cl)c1)N1CCC(Oc2ccccc2C(F)(F)F)CC1 = +
• O=S(=O)(Nc1ccc(Oc2ncccn2)c(Cl)c1)c1cccc(Cl)c1 = −

====

# Test system: HeLa cells
# measurement.description: Cell proliferation assay, photographic image analysis of proliferation, apoptosis and death (PAD assay), HeLa
# Type: cell-based
# Design: key: “+” indicates that the compound exibits inhibitory activity; “−” indicates that low or no inhibitory activity was observed
# reported.conditions: 6 concentrations tested
quantity.measured: PAD Assay, HELA 6 pt

• O=S(=O)(Nc1c(F)cccc1F)c1ccc(Oc2ncc(C(F)(F)F)cc2Cl)cc1 = −
• Cc1c(F)cccc1NS(=O)(=O)c1cc(Cl)c(Oc2ccc([N+](=O)[O-])cc2Cl)c(Cl)c1 = +
• CS/C(=N\S(=O)(=O)c1cc(Cl)c(Oc2ccc([N+](=O)[O-])cc2Cl)c(Cl)c1)Nc1ccc(Cl)cc1 = +
• O=[N+]([O-])c1ccc(Oc2c(Cl)cc(S(=O)(=O)Nc3cc([N+](=O)[O-])ccc3F)cc2Cl)c(Cl)c1 = +
• O=[N+]([O-])c1ccc(Oc2c(Cl)cc(S(=O)(=O)Nc3ccc(Cl)c(Cl)c3)cc2Cl)c(Cl)c1 = +
• O=[N+]([O-])c1ccc(Oc2c(Cl)cc(S(=O)(=O)Nc3ccc(F)cc3I)cc2Cl)c(Cl)c1 = +
• O=S(=O)(Nc1cc(Cl)ccc1C(F)(F)F)c1ccc(Oc2ncc(C(F)(F)F)cc2Cl)cc1 = +
• O=[N+]([O-])c1ccc(Oc2c(Cl)cc(S(=O)(=O)Nc3cccc(Br)c3)cc2Cl)c(Cl)c1 = +
• Cc1cc2cc(NS(=O)(=O)c3cc(Cl)c(Oc4ccc([N+](=O)[O-])cc4Cl)c(Cl)c3)ccc2[nH]1 = +
• O=C(Nc1ccccc1C(F)(F)F)N1CCC(Oc2ccccc2C(F)(F)F)CC1 = −
• N=C(NS(=O)(=O)c1cc(Cl)c(Oc2ccc([N+](=O)[O-])cc2Cl)c(Cl)c1)c1cccc([N+](=O)[O-])c1 = +
• CC(C)(C)c1cccc(C(C)(C)C)c1NS(=O)(=O)c1cc(Cl)c(Oc2ccc([N+](=O)[O-])cc2Cl)c(Cl)c1 = +
• Cc1cccc(C(C)C)c1NS(=O)(=O)c1cc(Cl)c(Oc2ccc([N+](=O)[O-])cc2Cl)c(Cl)c1 = +
• O=[N+]([O-])c1ccc(Oc2c(Cl)cc(S(=O)(=O)Nc3cccc4c3OC(F)(F)C(F)(F)O4)cc2Cl)c(Cl)c1 = −

====

# test.system: MDM2 / p53 substrate (Homo sapiens)
# Sequence (Q00987 whole entry): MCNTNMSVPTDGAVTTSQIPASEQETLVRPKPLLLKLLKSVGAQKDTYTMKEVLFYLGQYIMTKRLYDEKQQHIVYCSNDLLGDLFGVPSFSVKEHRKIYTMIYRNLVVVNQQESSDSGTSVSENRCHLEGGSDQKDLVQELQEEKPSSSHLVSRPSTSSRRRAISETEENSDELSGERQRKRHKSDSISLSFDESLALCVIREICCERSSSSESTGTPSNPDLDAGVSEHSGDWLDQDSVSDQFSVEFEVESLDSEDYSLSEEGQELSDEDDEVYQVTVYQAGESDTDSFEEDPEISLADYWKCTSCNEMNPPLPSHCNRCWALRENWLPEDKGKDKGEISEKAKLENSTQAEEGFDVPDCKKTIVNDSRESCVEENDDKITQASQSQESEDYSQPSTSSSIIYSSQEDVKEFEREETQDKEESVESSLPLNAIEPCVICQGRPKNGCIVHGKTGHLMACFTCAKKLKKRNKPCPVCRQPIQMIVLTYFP
# measurement.description: Plate-based MDM2 substrate ligation assay (MDM2-P53-FLAG)
# Assay type: biochemical
# Set-up: key: “+” indicates that the compound exibits inhibitory activity; “−” indicates that low or no inhibitory activity was observed
# reported.conditions: 8 concentrations tested
quantity.measured: MDM2-P53 Flag 8 pt

• O=[N+]([O-])c1ccc(Oc2c(Cl)cc(S(=O)(=O)Nc3cc(Cl)ccc3Cl)cc2Cl)c(Cl)c1 = +
• O=[N+]([O-])c1ccc(Oc2c(Cl)cc(S(=O)(=O)Nc3ccc(F)cc3)cc2Cl)c(Cl)c1 = −
• O=[N+]([O-])c1ccc(Oc2c(Cl)cc(S(=O)(=O)Nc3cc(Cl)cc(Cl)c3)cc2Cl)c(Cl)c1 = +
• O=[N+]([O-])c1ccc(Oc2c(Cl)cc(S(=O)(=O)Nc3cc([N+](=O)[O-])ccc3F)cc2Cl)c(Cl)c1 = −
• O=C(NCC1CC1)c1ccccc1NS(=O)(=O)c1cc(Cl)c(Oc2ccc([N+](=O)[O-])cc2Cl)c(Cl)c1 = −
• O=[N+]([O-])c1ccc(Oc2c(Cl)cc(S(=O)(=O)Nc3ccc(Cl)cc3[N+](=O)[O-])cc2Cl)c(Cl)c1 = +
• O=[N+]([O-])c1ccc(Oc2c(Cl)cc(S(=O)(=O)Nc3cc(Br)cc(Br)n3)cc2Cl)c(Cl)c1 = +
• O=[N+]([O-])c1ccc(Oc2c(Cl)cc(S(=O)(=O)/N=C(\NO)Nc3ccc(Cl)cc3)cc2Cl)c(Cl)c1 = +
• O=[N+]([O-])c1ccc(Oc2c(Cl)cc(S(=O)(=O)Nc3cccc(C(F)(F)F)c3)cc2Cl)c(Cl)c1 = −

====

# Test system: HeLa cells
# measurement.description: Cell proliferation assay, photographic image analysis of proliferation, apoptosis and death (PAD assay), HeLa
# Type: cell-based
# Design: key: “+” indicates that the compound exibits inhibitory activity; “−” indicates that low or no inhibitory activity was observed
# reported.conditions: 6 concentrations tested
# From the text: A549 (ATCC# CCL-185), HeLa (ATCC# CCL-2), HCT116 (ATCC# CCL-247), and H1299 (ATCC# CRL-5803) cells were maintained in T175 flasks following the ATCC recommended media and handling procedures. […] Cells to be analyzed by photography were fixed and stained. […]
quantity.measured: PAD Assay, HELA 6 pt

* Cc1c(Cl)cccc1NS(=O)(=O)c1cc(Cl)c(Oc2ccc([N+](=O)[O-])cc2Cl)c(Cl)c1 | +
* O=[N+]([O-])c1ccc(Oc2c(Cl)cc(S(=O)(=O)Nc3cc(F)ccc3C(F)(F)F)cc2Cl)c(Cl)c1 | +
* O=[N+]([O-])c1ccc(Oc2c(Cl)cc(S(=O)(=O)Nc3ccc(C(F)(F)F)cc3Cl)cc2Cl)c(Cl)c1 | +
* O=S(=O)(Nc1ccc(Oc2ccc(Cl)cc2)cc1)c1cc(Cl)ccc1Cl | −
* N#Cc1ccc(NS(=O)(=O)c2cc(Cl)c(Oc3ccc([N+](=O)[O-])cc3Cl)c(Cl)c2)cc1 | +
* O=[N+]([O-])c1ccc(Oc2c(Cl)cc(S(=O)(=O)Nc3cccc(Cl)c3)cc2Cl)c(Cl)c1 | −
* O=[N+]([O-])c1ccc(Oc2c(Cl)cc(S(=O)(=O)Nc3ccccc3-n3cccc3)cc2Cl)c(Cl)c1 | +
